Tested on: ANKK1;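 further: KINOMEscan kinase panel screen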
Conditions: concentration: 1 μM,replicates: in singlicate; n = 1
experimental.endpoint: %Inh (%)
Respond with the bare value in %.

Requested field: %Inh. Item: "Cl.Cl.NC[C@H](CC1CCCCC1)NC(=O)c1cc(Br)c(-c2ccnc3[nH]ccc23)s1"
0

Can you check "Cl.Oc1cc(-c2nc(-c3ccccc3)[nH]c2-c2ccncc2)ccc1Cl" next?
0

Can you check "CC(C)Nc1cc(-c2ccc3c(N)n[nH]c3c2)nc(N)n1" next?
19

Can you check "Cc1n[nH]c2ccc(-c3cc(OC[C@@H](N)Cc4ccccc4)cnc3-c3ccoc3)cc12.O=C(O)C(F)(F)F.O=C(O)C(F)(F)F" next?
0

Can you check "COc1ccc(C[C@@H](CN)NC(=O)c2cc(Br)c(-c3ccnc4[nH]ccc34)s2)cc1.Cl.Cl" next?
5

Can you check "C[C@@H](Oc1cc(-c2cnn(C3CCNCC3)c2)cnc1N)c1c(Cl)ccc(F)c1Cl" next?
55

Can you check Cl.Cl.Nc1nc(-c2ccc3c(N)n[nH]c3c2)cc(N2CCCC(NC(=O)c3ccccc3)C2)n1 (centres unmarked) next?
22

Can you check "CCN(CC)CCCCNc1ncc2cc(-c3c(Cl)cccc3Cl)c(NC(=O)NC(C)(C)C)nc2n1" next?
0

Can you check "CNC(=O)c1ccccc1Sc1ccc2c(/C=C/c3ccccn3)n[nH]c2c1" next?
0

Can you check "C[C@@H]1CCN(C(=O)CC#N)C[C@@H]1N(C)c1ncnc2[nH]ccc12" next?
0

Can you check CN(C)CC(O)COc1ccc(Nc2nccc(-c3cnn4nc(N5CCOCC5)ccc34)n2)cc1 (centres unmarked) next?
33
